// data source = patent US20220064329A1

For each of the binders below, state its Kd.
Molecular target: T1, recombinant human activated Factor VII (FVIIa) (human, UniProt P08709 61-212; P08709 213-466, ten glutamate residues of the Gla domain may be gamma-carboxylated)
T1 construct: chains tethered by a disulfide bond; also called Factor VIIa; rFVIIa
T1 sequence 1: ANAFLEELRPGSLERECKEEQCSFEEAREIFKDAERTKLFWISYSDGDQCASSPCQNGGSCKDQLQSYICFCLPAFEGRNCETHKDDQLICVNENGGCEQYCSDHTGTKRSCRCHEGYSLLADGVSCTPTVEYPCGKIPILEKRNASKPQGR
T1 sequence 2: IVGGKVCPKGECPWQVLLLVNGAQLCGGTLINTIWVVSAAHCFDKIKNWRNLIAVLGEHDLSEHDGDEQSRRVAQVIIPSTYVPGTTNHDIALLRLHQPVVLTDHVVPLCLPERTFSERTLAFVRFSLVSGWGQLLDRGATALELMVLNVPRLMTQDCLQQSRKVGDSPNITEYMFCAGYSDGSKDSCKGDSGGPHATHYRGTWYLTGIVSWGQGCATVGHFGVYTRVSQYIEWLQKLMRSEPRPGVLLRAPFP
Experiment: BLI (Fortebio)
Respond with the bare value in nM.

Specify measured Kd for VH SEQ ID NO 602 / VL SEQ ID NO 478 (antibody, IgG4, V domains shown, humanized 11F2; IgG4 S228P/kappa) VH: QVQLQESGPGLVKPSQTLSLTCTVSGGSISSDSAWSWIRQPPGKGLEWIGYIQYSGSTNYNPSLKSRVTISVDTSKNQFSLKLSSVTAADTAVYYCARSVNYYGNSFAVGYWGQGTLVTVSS VL: EIVLTQSPATLSLSPGERATLSCRASQGVSDYLHWYQQKPGQAPRLLIKYASQPATGIPARFSGSGSGTDFTLTISSLEPEDFAVYYCQQGHSFPLTFGQGTKLEIK .
24

Specify measured Kd for VH SEQ ID NO 546 / VL SEQ ID NO 494 (antibody, IgG4, V domains shown, humanized 11F2; IgG4 S228P/kappa) VH: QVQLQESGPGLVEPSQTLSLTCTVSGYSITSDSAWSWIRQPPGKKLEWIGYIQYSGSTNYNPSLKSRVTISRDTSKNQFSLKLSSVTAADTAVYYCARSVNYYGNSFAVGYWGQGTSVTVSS VL: EIVLTQSPATLSLSPGERATLSCRASQGVSDYLHWYQQKPGQAPRLLIKYASQPATGIPARFSGSGSGTDFTLTISSLEPEDVAVYYCQNGHSFPLTFGQGTKLEIK .
1.2

Specify measured Kd for VH SEQ ID NO 546 / VL SEQ ID NO 406 (antibody, IgG4, V domains shown, humanized 11F2; IgG4 S228P/kappa) VH: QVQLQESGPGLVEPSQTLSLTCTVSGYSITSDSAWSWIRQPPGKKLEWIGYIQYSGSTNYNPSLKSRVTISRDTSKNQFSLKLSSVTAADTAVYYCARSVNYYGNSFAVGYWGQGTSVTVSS VL: EIVLTQSPATLSLSPGERATLSCRASQGVSDYLAWYQQKPGQAPRLLIKYASQPATGIPARFSGSGSGTDFTLTISSLEPEDFAVYYCQNGHSFPLTFGAGTKLEIK .
6.7

Specify measured Kd for VH SEQ ID NO 618 / VL SEQ ID NO 310 (antibody, IgG4, V domains shown, humanized 11F2; IgG4 S228P/kappa) VH: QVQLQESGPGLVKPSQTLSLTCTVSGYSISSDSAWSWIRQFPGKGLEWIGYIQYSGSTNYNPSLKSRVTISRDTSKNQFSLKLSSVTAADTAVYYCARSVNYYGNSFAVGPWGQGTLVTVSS VL: EIVLTQSPATLSLSPGERATLSCRASQGISDYLAWYQQKPGQAPRLLIKYASQPATGIPARFSGSGSGTDFTLTISSLEPEDFAVYYCQNGHSFPLTFGQGTKLEIK .
12

Specify measured Kd for VH SEQ ID NO 314 / VL SEQ ID NO 342 (antibody, IgG4, V domains shown, humanized 11F2; IgG4 S228P/kappa) VH: QVQLQESGPGLVEPSDTLSLTCAVSGYSISSDSAWSWIRQPPGKGLEWIGYIQYSGSTNYNPSLKSRVTMSVDTSKNQFSLKLSSVTALDTAVYYCARSVNYYGNSFAVGPWGQGTLVTVSS VL: EIVLTQSPATLSLSPGERATLSCRASQGISDYLHWYQQKPGQAPRLLIKYTSQPATGIPARFSGSGSGRDFTLTISSLEPEDFAVYYCQNGHSFPLTFGAGTKLELK .
28

Specify measured Kd for VH SEQ ID NO 618 / VL SEQ ID NO 366 (antibody, IgG4, V domains shown, humanized 11F2; IgG4 S228P/kappa) VH: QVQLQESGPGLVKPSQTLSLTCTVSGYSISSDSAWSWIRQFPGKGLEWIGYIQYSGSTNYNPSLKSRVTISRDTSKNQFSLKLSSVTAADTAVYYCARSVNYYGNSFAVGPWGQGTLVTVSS VL: EIVLTQSPATLSLSPGERATLSCRASQGLSDYLAWYQQKPGEAPRLLIKYASQPATGIPARFSGSGSGTDFTLTISSLEPEDFAVYYCQNGHSFPLTFGQGTKLEIK .
21

Specify measured Kd for VH SEQ ID NO 618 / VL SEQ ID NO 358 (antibody, IgG4, V domains shown, humanized 11F2; IgG4 S228P/kappa) VH: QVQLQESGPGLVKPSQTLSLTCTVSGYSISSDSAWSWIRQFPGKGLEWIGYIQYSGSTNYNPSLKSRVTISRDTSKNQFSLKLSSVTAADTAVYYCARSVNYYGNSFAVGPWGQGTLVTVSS VL: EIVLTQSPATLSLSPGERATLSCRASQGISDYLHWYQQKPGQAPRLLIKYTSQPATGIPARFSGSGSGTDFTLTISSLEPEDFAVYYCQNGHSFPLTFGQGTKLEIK .
0.95

Specify measured Kd for VH SEQ ID NO 522 / VL SEQ ID NO 350 (antibody, IgG4, V domains shown, humanized 11F2; IgG4 S228P/kappa) VH: QVQLQESGPGLVEPSQTLSLTCTVSGYSISSDSAWSWIRQPPGKGLEWIGYIQYSGSTNYNPSLKSRVTISRDTSKNQFSLKLSSVTAADTAVYYCARSVNYYGNSFAVGPWGQGTLVTVSS VL: EIVLTQSPATLSLSPGERATLSCRASQGISDYLHWYQQKPGQAPRLLIKYTSQPATGIPARFSGSGSGTDFTLTISSLEPEDFAVYYCQNGHSFPLTFGAGTKLELK .
1.3

Specify measured Kd for VH SEQ ID NO 538 / VL SEQ ID NO 446 (antibody, IgG4, V domains shown, humanized 11F2; IgG4 S228P/kappa) VH: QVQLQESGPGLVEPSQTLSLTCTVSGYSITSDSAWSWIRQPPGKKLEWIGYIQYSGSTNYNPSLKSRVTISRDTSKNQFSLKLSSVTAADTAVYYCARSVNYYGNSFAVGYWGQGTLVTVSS VL: EIVLTQSPATLSLSPGERATLSCRASQGVSDYLAWYQQKPGQAPRLLIKYTSQPATGIPARFSGSGSGTDFTLTISSLEPEDFAVYYCQNGHSFPLTFGQGTKLEIK .
12

Specify measured Kd for VH SEQ ID NO 522 / VL SEQ ID NO 374 (antibody, IgG4, V domains shown, humanized 11F2; IgG4 S228P/kappa) VH: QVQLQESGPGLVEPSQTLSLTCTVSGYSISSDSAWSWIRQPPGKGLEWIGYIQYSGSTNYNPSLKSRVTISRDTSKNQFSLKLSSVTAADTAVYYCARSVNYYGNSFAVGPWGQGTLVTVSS VL: EIVLTQSPATLSLSPGERATLSCRASQGLSDYLAWYQQKPGQAPRLLIKYTSQPATGIPARFSGSGSGTDFTLTISSLEPEDFAVYYCQNGHSFPLTFGQGTKLEIK .
14
